Reference for the values: paper PMC9482650

- Tgt: T1, RHPN1, Q8TCX5
- T1 sequence (Q8TCX5 508-602, limits assumed, looked up): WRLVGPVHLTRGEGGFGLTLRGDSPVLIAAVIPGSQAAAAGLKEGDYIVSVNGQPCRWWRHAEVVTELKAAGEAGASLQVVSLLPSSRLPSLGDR
- Protocol Details: holdup assay
- Design: key: below the threshold = too weak to quantify, mostly under pKd 3.1 to 4
- Conditions: plain residues with an end cap or a label only (N-terminal biotin on a linker: ado-ado)
Measurement Label: pKd

Reference set, count: 5
RFQQRMQTHV [KIRREL1, Q96J84] : 3.91
EKCGKEFSEF [PRKACA, P17612] : below the threshold
KSRVAFFEEL [NF2, P35240;P35240-1] : below the threshold
GEDRSPPTAL [MKNK1, Q9BUB5] : below the threshold
EDGESWEYQI [TRPV6, Q9H1D0] : below the threshold

Using the record for LESTTVGTSV [KARS1, Q15046] , report its pKd.
4.07

What does the data say about its pKd? Entry: QSGLYESEEL [MYOT, Q9UBF9]
below the threshold

Would you mind telling me what pKd value was observed for LAHVKHKEQI [AQP3, Q92482] ?
below the threshold

Quick one: pKd of LPAVCYDIDI [PTTG2, Q9NZH5] ?
below the threshold
